Values from patent US20240067748A1

# System: T1, human Trop2 on cells (human, UniProt P09758 27-323)
# T1 construct: whole, on cells; also called hTrop2; 293T-human Trop2 cells
# T1 sequence (looked up): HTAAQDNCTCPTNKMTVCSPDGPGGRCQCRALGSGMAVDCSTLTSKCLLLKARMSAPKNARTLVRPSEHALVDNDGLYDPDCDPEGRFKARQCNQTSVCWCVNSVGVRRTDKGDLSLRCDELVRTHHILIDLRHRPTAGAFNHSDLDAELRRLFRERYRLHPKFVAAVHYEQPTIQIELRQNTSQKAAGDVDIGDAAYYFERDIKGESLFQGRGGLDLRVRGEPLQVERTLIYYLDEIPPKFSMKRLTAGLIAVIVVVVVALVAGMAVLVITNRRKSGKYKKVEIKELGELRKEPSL
# Assay overview: flow cytometry on 293T-human Trop2 cells
# Lookup of reported Maximum (MFI) keyed by entry
Return type: number; implicit unit MFI.

Binder | Maximum (MFI)
PR001164 (antibody, human IgG1, kappa, V domains shown, fully human IgG1/kappa; also called antibody No. (25)) VH: QVQLQQSGPGLVKPSQTLSLTCAISGDSVSSTSAVWNWIRQSPSRGLEWLGRTCYRSKWYNDYAVSVKSRITITPDTSKNQFSLRLNPVTPEDTAVYYCARGDFRFDSWGQGTLVTVSS VL: DIQLTQSPSFLSASVGDRVTITCRASQGISSYLAWYQQKPGKAPKLLIYAASTLQSGVPSRFSGSGSGTEFTLTISSLQPEDFATYYCQQVKIYPLTFGGGTKVEIKR | 8950

Could you now consider this next binder?
*Q* # lookup: Maximum (MFI) of PR001168 (antibody, human IgG1, kappa, V domains shown, fully human IgG1/kappa; also called antibody No. (28)) VH: QVQLVESGGGVVQPGRSLRLSCATSGFIFSSYGMHWVRQAPGKGLDWVAVIWYDGSNKYYADSVKGRFTISRDNSKNTLYLQMNSLRVEDTAVYYCARETSSWYVGYLQHWGQGTLVTVSS VL: EIVMTQSPATLSVSPGERVSLSCRASQSVNGNVAWYQQKPGQAPRLLIYAASTRATGIPARFSGSGSGTESTLTISSLQSEDCAVYYCQQYNNWPSTFGPGTKLEVTR
*A* 6780
